All values here come from the supplement of paper PMC10567573.

B1: RTP4 (parent)
chain: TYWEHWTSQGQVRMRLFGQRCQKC

Variants of: B1
Assay: protein stability index of a GFP-peptide fusion (GPS, HEK-293T) (PSI 1-6); higher = more stable;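 note: lentivirally expressed fusions sorted by FACS into six bins by GFP to DsRed ratio, PSI derived from sequencing read proportions per bin multiplied by bin number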
Details: c terminus: a fixed tail appended

- Mutation spec: "Q19H"
  protein stability index: 2.6
- Mutation spec: "R15S"
  protein stability index: 1.21
- Mutation spec: "T7L"
  protein stability index: 1.61
- Mutation spec: "S8Q"
  protein stability index: 1.77
- Mutation spec: "Q22I"
  protein stability index: 1.52
- Mutation spec: "V12Q"
  protein stability index: 1.51
- Mutation spec: "R13N"
  protein stability index: 1.54
- Mutation spec: "W3Q"
  protein stability index: 2.51
- Mutation spec: "G18W"
  protein stability index: 1.74
- Mutation spec: "K23C"
  protein stability index: 1.63
- Mutation spec: "Y2G"
  protein stability index: 3.25
- Mutation spec: "Q11Y"
  protein stability index: 1.58
- Mutation spec: "Q19Y"
  protein stability index: 1.03
- Mutation spec: "Q11N"
  protein stability index: 2.01
